TESTED_SYSTEM: Delta-type opioid receptor (Rattus norvegicus, UniProt P33533)
Sequence (P33533 whole entry): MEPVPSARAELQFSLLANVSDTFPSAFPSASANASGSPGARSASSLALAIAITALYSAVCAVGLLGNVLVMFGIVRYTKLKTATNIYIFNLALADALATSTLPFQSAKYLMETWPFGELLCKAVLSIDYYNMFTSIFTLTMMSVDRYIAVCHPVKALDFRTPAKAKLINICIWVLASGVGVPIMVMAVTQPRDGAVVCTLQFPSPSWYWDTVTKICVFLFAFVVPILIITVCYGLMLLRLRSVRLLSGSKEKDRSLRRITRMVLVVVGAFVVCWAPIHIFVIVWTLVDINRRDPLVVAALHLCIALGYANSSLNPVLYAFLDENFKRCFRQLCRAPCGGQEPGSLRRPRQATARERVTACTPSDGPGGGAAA
ASSAY_NOTES: Displacement of [3H]DPDPE from delta opioid receptor in Wistar rat brain
Where a SMILES comes first, the peptide text is derived from it. [ ]: non-standard residue; d: D form. hPhe = N[C@@H](CCc1ccccc1)C(=O)O
QUANTITY_MEASURED: Ki

NC(=O)[C@H](Cc1ccccc1)NC(=O)[C@H](CCc1ccccc1)NC(=O)[C@@H]1CCCN1C(=O)[C@@H](N)Cc1ccc(O)cc1
> 10 µM
NC(=O)[C@@H]1CCCN1C(=O)[C@H](NC(=O)[C@@H]1CCCN1C(=O)[C@@H](N)Cc1ccc(O)cc1)c1ccccc1
> 10 µM

Can you look up Ki on Delta-type opioid receptor (Rattus norvegicus, UniProt P33533) for NC(=O)[C@H](CCc1ccccc1)NC(=O)[C@H](Cc1ccccc1)NC(=O)[C@@H]1CCCN1C(=O)[C@@H](N)Cc1ccc(O)cc1 ? > 10 µM

Okay, and NC(=O)[C@@H]1CCCN1C(=O)[C@H](Cc1ccccc1)NC(=O)[C@@H]1CCCN1C(=O)[C@@H](N)Cc1ccc(O)cc1 [MORPHICEPTIN] (H-YPFP-NH2) ? > 10 µM

// next record NC(=O)[C@H](Cc1ccccc1)NC(=O)[C@H](NC(=O)[C@@H]1CCCN1C(=O)[C@@H](N)Cc1ccc(O)cc1)c1ccccc1 2.1 µM

One more compound: NC(=O)[C@@H]1CCCN1C(=O)[C@H](CCc1ccccc1)NC(=O)[C@@H]1CCCN1C(=O)[C@@H](N)Cc1ccc(O)cc1 (H-YP[hPhe]P-NH2) > 10 µM
